Cited source for all entries: patent US20260159525A1

# Tested on: NCI-H226 cells
# Protocol notes: Viability assay in NCI-H226 (Yap-dependent) cells, CyQUANT
# Format: cell-based
# Conditions: Homo sapiens, NCI-H226 YAP dependent cell line, 96 hour incubation, group symbols
pIC50: −log10 of the molar value.
Assay endpoint: pIC50

Below, each entry is followed by its recorded pIC50 result.
- Compound: "Cn1cc2c3cc(C(=O)NCc4cccnc4)sc3n(-c3ccc(C(F)(F)F)cc3)c2n1"
  pIC50: "7.00 to 9.00"
- Compound: "Cn1cc2c3cc(C(=O)O)sc3n(-c3ccc(OC(F)(F)F)cn3)c2n1"
  pIC50: "6.00 to 7.00"

Shifting focus to the compound that follows.
Request: So what's the measured pIC50 for this one? Cn1cc2c3cc(C(=O)N4CC[C@H](O)C4)sc3n(-c3ccc(C(F)F)cc3)c2n1
Response: 6.00 to 7.00
